src = BigSolDB 2.1

Listed below: solubility (mole fraction) values for each entry.
Conditions: in 2-butanone, 313 K
The response must contain the number and no unit.

Entry O=C1c2ccccc2C(=O)c2ccccc21 : reported solubility (mole fraction) = ?
0.00087

Entry c1ccc2cc3ccccc3cc2c1 : reported solubility (mole fraction) = ?
0.0085

====

Listed below: solubility (mole fraction) values for each entry.
Conditions: in isopropanol, 308 K

>  <Query smiles>
O=C1c2ccccc2C(=O)c2ccccc21

>  <Readout kind>
solubility (mole fraction)

>  <Result>
0.00012

$$$$

Entry c1ccc2cc3ccccc3cc2c1 : reported solubility (mole fraction) = ?
0.00061

====

Conditions: in acetonitrile, 313 K
Readout kind: solubility (mole fraction)
The response must contain the number and no unit.

>  <Query smiles>
c1ccc2cc3ccccc3cc2c1

>  <solubility (mole fraction)>
0.00196

$$$$

Now let's try a different one.
Entry O=C1c2ccccc2C(=O)c2ccccc21 : reported solubility (mole fraction) = ?
0.00039
